B1: Azoarcus group I ribozyme (parent)
chain: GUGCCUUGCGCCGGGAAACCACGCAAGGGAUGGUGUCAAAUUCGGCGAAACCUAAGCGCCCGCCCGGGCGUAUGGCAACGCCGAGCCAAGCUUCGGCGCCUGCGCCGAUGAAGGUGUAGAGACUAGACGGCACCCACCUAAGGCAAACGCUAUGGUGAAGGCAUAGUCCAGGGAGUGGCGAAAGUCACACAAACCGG

- Variants of: B1
- protocol-text: reverse-splicing fitness (ratio to wild type); higher = more active; in vitro selection; Mg2+ level not given
outcome-measure: reverse-splicing fitness
Field format: numeric only.

Worked cases, reverse-splicing fitness given:
{"variant-description": "C82G A120G A145C C150G U176A", "numeric-result": 0.00713}
{"variant-description": "C82G A120G A145G C169U U176C", "numeric-result": 0.0199}
{"variant-description": "A111U C169G U176A", "numeric-result": 0.02}
{"variant-description": "C82A A111C A120C A145G C169G U176G", "numeric-result": 0.00694}
{"variant-description": "A111C A120C C150A C169G", "numeric-result": 0.00716}
{"variant-description": "C82G A111C A145U C150U C169G U176C", "numeric-result": 0.0196}

Query :: Fill in: reverse-splicing fitness of C82U A111G A145U C169A U176C is ___
Result :: 0.00683

Query :: Field request: reverse-splicing fitness | item: C82G A111C A145G C150G C169G
Result :: 0.00707
